# target-or-system: T1, 4H458-AA
# T1 chain: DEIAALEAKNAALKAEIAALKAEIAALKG
# experiment: two-hybrid library CCmax;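 also: natural log of median RNA to DNA barcode read ratio; higher means stronger binding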
# conditions-used: mean of both orientations

{"binder": "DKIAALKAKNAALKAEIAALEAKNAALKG [4H3016-AA]", "interaction score": -1.13}
{"binder": "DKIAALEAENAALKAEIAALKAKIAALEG [4H2253-AA]", "interaction score": 0.0604}
{"binder": "DKNAALEAEIAALEAKIAALKAKNAALKG [4H3120-AA]", "interaction score": -1.3}
{"binder": "DENAALKAKIAALKAENAALEAKIAALEG [4H1877-AA]", "interaction score": -0.933}
